target: UniProt Q13133; test: Agonist activity at GAL4-fused human LXRalpha expressed in HEK293 cells assessed as activation of basal transcriptional activity up to 10 uM after 20 hrs by dual-glo luciferase reporter gene assay; assay type: cell-based
Sequence (Q13133 whole entry, the tested form may be a part): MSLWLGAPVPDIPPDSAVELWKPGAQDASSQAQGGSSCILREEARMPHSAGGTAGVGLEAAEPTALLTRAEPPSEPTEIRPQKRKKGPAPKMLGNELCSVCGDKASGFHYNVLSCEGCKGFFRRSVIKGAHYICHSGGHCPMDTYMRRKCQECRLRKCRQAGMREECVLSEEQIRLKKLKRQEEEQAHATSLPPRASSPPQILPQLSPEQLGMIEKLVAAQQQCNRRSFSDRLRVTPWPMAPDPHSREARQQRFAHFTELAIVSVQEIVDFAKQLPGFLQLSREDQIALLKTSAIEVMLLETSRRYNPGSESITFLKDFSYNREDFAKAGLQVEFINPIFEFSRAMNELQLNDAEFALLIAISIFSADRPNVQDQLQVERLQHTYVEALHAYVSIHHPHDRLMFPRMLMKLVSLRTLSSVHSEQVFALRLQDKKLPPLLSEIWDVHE
Activity calls are given as the source filed them. The rule behind the calls is not given here.

>  <Structure notation>
O=C(Nc1ccc2c(c1)N(S(=O)(=O)c1ccc(F)cc1)CC2)c1c(F)cccc1F

>  <Activity>
inactive

$$$$
>  <Structure notation>
O=C(Nc1ccc2c(c1)N(S(=O)(=O)c1ccc(F)cc1)CCC2)c1c(F)cccc1F

>  <Activity>
inactive

$$$$
>  <Structure notation>
O=C(Nc1ccc2c(c1)N(S(=O)(=O)c1ccc(F)cc1)CCC2)c1ccccc1Cl

>  <Activity>
inactive

$$$$
>  <Structure notation>
O=C(Nc1ccc2c(c1)N(S(=O)(=O)c1ccc(F)cc1)CCC2)c1c(F)cccc1Cl

>  <Activity>
inactive

$$$$
